Biological target: the molecule itself
Experiment: composition gradient–MALS
pKd: −log10 of the molar value.
valueKind: pKd

Task: Request the reported pKd associated with core^S (N34^546–579-(L6)-C28^628–655), homotrimeric six-helix bundle of gp41 (domain or fragment) SGIVQQQNNLLRAIEAQQHLLQLTVWGIKQLQARSGGRGGWMEWDREINNYTSLIHSLIEESQNQQEK
Result: > 6.60
